Where these numbers come from: patent US12285475B2

Test system: Kp-2H7
assayMethodText: Kp-2H7 antibiotic susceptibility (MIC / growth in presence of antibiotics)
Type: cell-based, Klebsiella pneumoniae
measurementConditions: Klebsiella pneumoniae, 24 h; read-out: MIC
quantityKind: MIC

Note MIC for the compound shown: NCC[C@H](O)C(=O)N[C@@H]1C[C@H](N)[C@@H](O[C@H]2O[C@H](CN)[C@@H](O)[C@H](O)[C@H]2O)[C@H](O)[C@H]1O[C@H]1O[C@H](CO)[C@@H](O)[C@H](N)[C@H]1O [Amikacin]
≤ 8 µg/mL

Give MIC for the following compound: CO/N=C(\C(=O)N[C@@H]1C(=O)N2C(C(=O)[O-])=C(C[n+]3cccc4c3CCC4)CS[C@H]12)c1csc(N)n1 [Cefpirome]
≤ 4 µg/mL

Recall and state the measured MIC for N[C@@H](C(=O)N[C@@H]1C(=O)N2C(C(=O)O)=C(Cl)CS[C@H]12)c1ccccc1 [Cefaclor] .
≤ 4 µg/mL

* * *

Test system: Kp-2H7
assayMethodText: Kp-2H7 antibiotic susceptibility (MIC / growth in presence of antibiotics)
Format: cell-based, Klebsiella pneumoniae
measurementConditions: Klebsiella pneumoniae, 24 h; read-out: MIC
MIC values by entry

Consider the worked cases shown below.
{"compound": "COCC1=C(C(=O)OC(C)OC(=O)OC(C)C)N2C(=O)[C@@H](NC(=O)/C(=N\\OC)c3csc(N)n3)[C@H]2SC1 (stereo partly shown) [Cefpodoxime-Proxetil]", "subjectOfTest": "Kp-2H7", "MIC": "≤ 1 µg/mL"}
{"compound": "Cc1nnc(SCC2=C(C(=O)O)N3C(=O)[C@@H](NC(=O)Cn4cnnn4)[C@H]3SC2)s1 [Cefazolin]", "subjectOfTest": "Kp-2H7", "MIC": "1 µg/mL"}
{"compound": "CN(C)CCn1nnnc1SCC1=C(C(=O)O)N2C(=O)[C@@H](NC(=O)Cc3csc(N)n3)[C@H]2SC1 [Cefotiam]", "subjectOfTest": "Kp-2H7", "MIC": "≤ 0.5 µg/mL"}
{"compound": "CCN1CCN(C(=O)N[C@@H](C(=O)N[C@@H]2C(=O)N3[C@@H]2SC(C)(C)[C@@H]3C(=O)O)c2ccccc2)C(=O)C1=O [Piperacillin]", "subjectOfTest": "Kp-2H7", "MIC": "≤ 8 µg/mL"}
{"compound": "C[C@@H](O)[C@H]1C(=O)N2C(C(=O)O)=C(S[C@@H]3CN[C@H](C(=O)N(C)C)C3)[C@H](C)[C@H]12 [Meropenem]", "subjectOfTest": "Kp-2H7", "MIC": "≤ 0.25 µg/mL"}
{"compound": "C[C@@H]1O[C@@H]1P(=O)(O)O [Fosfomycin]", "subjectOfTest": "Kp-2H7", "MIC": "16 µg/mL"}

Moving on to the next compound.
Identify measured MIC corresponding to CO[C@@]1(NC(=O)CSC(F)F)C(=O)N2C(C(=O)O)=C(CSc3nnnn3CCO)CO[C@@H]21 [Flomoxef]
≤ 8 µg/mL

* * *

System: Kp-2H7
assayMethodText: Kp-2H7 antibiotic susceptibility (MIC / growth in presence of antibiotics)
Assay type: cell-based, Klebsiella pneumoniae
measurementConditions: Klebsiella pneumoniae, 24 h; read-out: MIC
Recorded MIC values for a group of compounds are listed next.

Solved entries (count: 5):
{"compound": "C[C@H]1COc2c(N3CCN(C)CC3)c(F)cc3c(=O)c(C(=O)O)cn1c23 [Levofloxacin]", "subjectOfTest": "Kp-2H7", "MIC": "≤ 1 µg/mL"}
{"compound": "CN(C)c1ccc(O)c2c1C[C@H]1C[C@H]3[C@H](N(C)C)C(O)=C(C(N)=O)C(=O)[C@@]3(O)C(O)=C1C2=O [Minocycline]", "subjectOfTest": "Kp-2H7", "MIC": "≤ 2 µg/mL"}
{"compound": "CC1(C)S[C@@H]2[C@H](NC(=O)[C@H](N)c3ccccc3)C(=O)N2[C@H]1C(=O)O [Ampicillin]", "subjectOfTest": "Kp-2H7", "MIC": "> 16 µg/mL"}
{"compound": "CO/N=C(\\C(=O)N[C@@H]1C(=O)N2C(C(=O)O)=C(COC(C)=O)CS[C@H]12)c1csc(N)n1 [Cefotaxime]", "subjectOfTest": "Kp-2H7", "MIC": "≤ 0.5 µg/mL"}
{"compound": "C[C@H]1[C@H](NC(=O)/C(=N\\OC(C)(C)C(=O)O)c2csc(N)n2)C(=O)N1S(=O)(=O)O [Aztreonam]", "subjectOfTest": "Kp-2H7", "MIC": "≤ 1 µg/mL"}

Tell me MIC reported for CC(C)(O/N=C(\C(=O)N[C@@H]1C(=O)N2C(C(=O)[O-])=C(C[n+]3ccccc3)CS[C@H]12)c1csc(N)n1)C(=O)O [Ceftazidime]
≤ 1 µg/mL

Look up MIC of CO[C@@]1(NC(=O)CSCC#N)C(=O)N2C(C(=O)O)=C(CSc3nnnn3C)CS[C@@H]21 [Cefmetazole] and report it.
≤ 8 µg/mL
